# growth at 10 µM listing for each entry below
tested on: OVCAR-8; experiment: Growth inhibition of human OVCAR8 cells assessed as cell growth at 10^-5 M after 48 hrs by sulforhodamine B assay relative to control; format: functional; conditions: OVCAR-8, 48 h, read-out: Activity
// note: answer is a bare numeric in %

# smi, growth at 10 µM [%]
rows = [
    ("CC(=O)N1CCN(C(=O)Cn2c(-c3ccc(C)cc3)csc2=N)CC1", 98.4),
    ("N=c1scc(-c2ccccc2)n1CC(=O)N1CCN(c2ccccc2)CC1", 94.7),
    ("CC(=O)N1CCN(C(=O)Cn2c(-c3ccccc3)csc2=N)CC1", 96.7),
    ("N=c1scc(-c2ccccc2)n1CC(=O)N1CCOCC1", 94.8),
    ("N=c1scc(-c2ccc(Cl)cc2)n1CC(=O)N1CCOCC1", 101),
]

Record summary for CN1CCN(C(=O)Cn2c(-c3ccc(Cl)cc3)csc2=N)CC1 : reported growth at 10 µM = 96.8

---

Biological target: Vitamin D3 receptor (Homo sapiens, UniProt P11473)
Sequence (P11473 whole entry): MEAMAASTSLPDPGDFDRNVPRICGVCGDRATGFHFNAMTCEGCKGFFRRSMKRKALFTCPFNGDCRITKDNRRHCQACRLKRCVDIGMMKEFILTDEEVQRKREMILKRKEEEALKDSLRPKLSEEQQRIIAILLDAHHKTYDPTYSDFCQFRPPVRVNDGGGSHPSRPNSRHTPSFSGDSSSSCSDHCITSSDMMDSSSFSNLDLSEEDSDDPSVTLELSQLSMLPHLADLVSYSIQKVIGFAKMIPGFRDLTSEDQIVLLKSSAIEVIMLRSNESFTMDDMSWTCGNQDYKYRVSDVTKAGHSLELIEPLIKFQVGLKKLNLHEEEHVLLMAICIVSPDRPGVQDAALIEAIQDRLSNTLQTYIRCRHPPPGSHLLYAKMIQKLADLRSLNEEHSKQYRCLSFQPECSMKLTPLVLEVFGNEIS
# Ki listing for each entry below

Consider the reported Ki for these molecules:
# smi, property, endpoint-value
data = [
    ("Cc1ccc(-c2csc(=N)n2CC(=O)N2CCN(C)CC2)cc1", "Ki", "17.1 µM"),
    ("CN1CCN(C(=O)Cn2c(-c3ccc(Cl)cc3)csc2=N)CC1", "Ki", "3.66 µM"),
    ("CC(=O)N1CCN(C(=O)Cn2c(-c3ccccc3)csc2=N)CC1", "Ki", "4.66 µM"),
    ("Cc1ccc(-c2csc(=N)n2CC(=O)N2CCN(c3ccccc3)CC2)cc1", "Ki", "1.03 µM"),
    ("N=c1scc(-c2ccc(Cl)cc2)n1CC(=O)N1CCN(c2ccccc2)CC1", "Ki", "3.07 µM"),
]

Record summary for CC(=O)N1CCN(C(=O)Cn2c(-c3ccc(Cl)cc3)csc2=N)CC1 : reported Ki = 2.28 µM

Record summary for N=c1scc(-c2ccccc2)n1CC(=O)N1CCN(c2ccccc2)CC1 : reported Ki = 1.6 µM

Record summary for Cc1ccc(-c2csc(=N)n2CC(=O)N2CCOCC2)cc1 : reported Ki = 13.7 µM

Record summary for N=c1scc(-c2ccc(Cl)cc2)n1CC(=O)N1CCOCC1 : reported Ki = 4.13 µM

Record summary for CN1CCN(C(=O)Cn2c(-c3ccccc3)csc2=N)CC1 : reported Ki = 28.3 µM

Record summary for N=c1scc(-c2ccccc2)n1CC(=O)N1CCOCC1 : reported Ki = 24.4 µM

Record summary for CC(=O)N1CCN(C(=O)Cn2c(-c3ccc(C)cc3)csc2=N)CC1 : reported Ki = 2.84 µM
